Just for reference, patent US20240083853A1 is where these values come from.

molecular target: Recombinant human HSD17B13 enzyme (Homo sapiens, UniProt Q7Z5P4); test: HSD17b13 NAD(P)H-Glo biochemical assay; conditions: 50 uM estradiol, 1 mM NAD+, NAD(P)H-Glo luminescence; read-out: HSD17β13 IC50
Sequence (Q7Z5P4 20-300): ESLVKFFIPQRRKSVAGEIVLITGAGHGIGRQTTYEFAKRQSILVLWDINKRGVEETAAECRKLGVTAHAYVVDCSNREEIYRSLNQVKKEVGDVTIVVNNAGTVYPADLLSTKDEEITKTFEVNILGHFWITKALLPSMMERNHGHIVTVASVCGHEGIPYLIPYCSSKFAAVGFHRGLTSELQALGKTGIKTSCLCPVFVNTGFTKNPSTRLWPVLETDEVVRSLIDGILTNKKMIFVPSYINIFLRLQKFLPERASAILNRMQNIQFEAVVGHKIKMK
pIC50: −log10 of the molar value.
Parameter: pIC50. Scope: all listed entries.

[[record]]
compound = "C[C@H]1CN(c2ccc(-n3ncc4cc(F)c(O)c(F)c43)cc2)C[C@H](C)O1 (relative stereo) [Compound 20]"
measurement_kind = "pIC50"
reported = "> 7.00"


Look up and report measured pIC50 for this entry: CS(=O)(=O)c1cccc(-c2ccc(-n3ncc4cc(F)c(O)cc43)cc2)c1
6.00 to 7.00

Look up and report measured pIC50 for this entry: Oc1cc(F)c2cnn(-c3ccc(-c4cccc(O)c4Br)cc3)c2c1
4.52 to 6.00

Look up and report measured pIC50 for this entry: OCc1ccc(-c2ccc(-n3ncc4cc(F)c(O)cc43)cc2)cc1
6.00 to 7.00

* * *

molecular target: Recombinant human HSD17B13 enzyme (Homo sapiens); assay: HSD17b13 NAD(P)H-Glo biochemical assay; details: 50 uM estradiol, 1 mM NAD+, NAD(P)H-Glo luminescence; read-out: HSD17β13 IC50
measurement_kind: IC50

Check out these entries, answers already filled in.
[[record]]
smiles_structure = "Oc1cc2c(cnn2-c2ccc(-c3ccccn3)cc2)cc1F"
study_system = "Recombinant human HSD17B13 enzyme (Homo sapiens)"
reported = "1000 to 30000 nM"

[[record]]
smiles_structure = "Oc1c(F)cc2cnn(-c3ccc(N4CCC5(CCC5)CC4)cc3)c2c1F"
study_system = "Recombinant human HSD17B13 enzyme (Homo sapiens)"
reported = "< 100 nM"

[[record]]
smiles_structure = "Cc1c(F)c(O)cc2c1cnn2-c1ccc(-c2cccc(O)c2)cc1"
study_system = "Recombinant human HSD17B13 enzyme (Homo sapiens)"
reported = "100 to 1000 nM"

[[record]]
smiles_structure = "Oc1ccc(-c2ccc(-n3nnc4cc(F)c(O)cc43)cc2)cc1"
study_system = "Recombinant human HSD17B13 enzyme (Homo sapiens)"
reported = "< 100 nM"

[[record]]
smiles_structure = "OCc1cccc(-c2ccc(-n3ncc4cc(F)c(O)cc43)cc2)c1"
study_system = "Recombinant human HSD17B13 enzyme (Homo sapiens)"
reported = "1000 to 30000 nM"

[[record]]
smiles_structure = "CC1CCN(c2ccc(-n3ncc4cc(F)c(O)c(F)c43)cc2)CC1"
study_system = "Recombinant human HSD17B13 enzyme (Homo sapiens)"
reported = "< 100 nM"

[[record]]
smiles_structure = "CS(=O)(=O)N1C2CC1CN(c1ccc(-n3ncc4cc(F)c(O)c(F)c43)cc1)C2"
study_system = "Recombinant human HSD17B13 enzyme (Homo sapiens)"
reported = "100 to 1000 nM"

[[record]]
smiles_structure = "NC(=O)c1cccc(-c2ccc(-n3ncc4cc(F)c(O)cc43)cc2)c1"
study_system = "Recombinant human HSD17B13 enzyme (Homo sapiens)"
reported = "100 to 1000 nM"

[[record]]
smiles_structure = "CC1(C)CCN(c2ccc(-n3[nH]c(=O)c4cc(F)c(O)c(F)c43)cc2)CC1"
study_system = "Recombinant human HSD17B13 enzyme (Homo sapiens)"
reported = "100 to 1000 nM"

[[record]]
smiles_structure = "CS(=O)(=O)N1CCN(c2ncc(-n3ncc4cc(F)c(O)c(F)c43)cn2)CC1"
study_system = "Recombinant human HSD17B13 enzyme (Homo sapiens)"
reported = "100 to 1000 nM"


Look up and report measured IC50 for this entry: Oc1c(F)cc2cnn(-c3ccc(N4CCSCC4)cc3)c2c1F
< 100 nM

Look up and report measured IC50 for this entry: Cc1cc(-n2ncc3cc(F)c(O)c(F)c32)ccc1N1CCN(S(C)(=O)=O)CC1
< 100 nM

Look up and report measured IC50 for this entry: CC1(C)CCN(c2ccc(-n3ncc4cc(F)c(O)nc43)cc2)CC1
1000 to 30000 nM

Look up and report measured IC50 for this entry: CS(=O)(=O)N1CCN(c2ccc(-n3ncc4cc(F)c(O)c(F)c43)nc2)CC1
1000 to 30000 nM

Look up and report measured IC50 for this entry: Oc1c(F)cc2cnn(-c3ccc(N4CC5(CCOCC5)C4)cc3)c2c1F
< 100 nM

Look up and report measured IC50 for this entry: CC1(C)CCN(c2ccc(-n3ncc4cc(F)c(O)c(F)c43)nc2)CC1
< 100 nM

Look up and report measured IC50 for this entry: Oc1cccc(-c2ccc(-n3nc(F)c4cc(F)c(O)c(F)c43)cc2)c1
100 to 1000 nM

Look up and report measured IC50 for this entry: CC1(C)CCN(c2ccc(-n3nnc4c(Cl)c(F)c(O)cc43)cc2)CC1
< 100 nM
